- System: PC-3 prostate
- Experiment Summary: NCI tumour cell line growth inhibition, 48 h; in the data active = GI50 below about 0.43 µM; inactive = the rest
Entry note: the call must match one of yes = active, no = inactive

Past entries and their recorded results:
O=C1c2c(Cl)c(Cl)c(Cl)c(Cl)c2C(=O)C2(Cl)CC=CCC12Cl (stereo not given) :: no
COc1cc(CCC(=O)NC[C@@H](O)c2ccccc2)ccc1O :: no
COc1ccc(-c2cn(-c3cc(OC)c(OC)c(OC)c3)c(=O)[nH]2)cc1OC :: no
NC(N)=Nc1ccc(/C=C2\C=Cc3ccccc32)cc1 :: no
CCCN(CCC)c1ccc(C=O)c(C)c1 :: no
N#CC1=C(N)Oc2c(sc3c(Br)cccc23)C1c1ccc(Cl)cc1 (stereo not given) :: no

Attention now shifts to the item below.
State the result this test recorded for [Cu+2].[NH-]C(CC(=O)O)C(=O)O.[NH-]C(CC(=O)O)C(=O)O (stereo not given) .
no

Hello, the source for this data is PubChem BioAssay (NCI), in case you need it.
